Each item that follows carries a reported selectivity ratio.
- test_protocol: Sedation and ataxia in rats
- measurement_parameters: rat, in vivo, ratio of doses, read-out: anxiolytic doses lower than the doses that produce sedation and ataxia

molecule: CCCCCCN(CCCCCC)C(=O)Cc1c(-c2ccc(Cl)cc2)[nH]c2ccc(Cl)cc12 [compound 43]
measured_value: 100 to 500

## Task I have this molecule here, CCCCCCN(CCCCCC)C(=O)Cc1c(-c2ccc(F)cc2)[nH]c2ccccc12 [compound 27] , and I need its recorded selectivity ratio.
## Result 100 to 500

* * *

- target: MBR (mitochondrial benzodiazepine recognition site) (Rattus norvegicus, UniProt P16257)
- Construct: Brain and adrenal glands were removed and homogenized with Polytron; from tissue; host or cells: mitochondrial fraction of Sprague Dawley rat brain and adrenal glands
- test_protocol: Displacement of ^3 H-RO5-4864 from mitochondrial BZD recognition site (MBR)
- Type: binding, Sprague Dawley rat
- measurement_parameters: displacement of 1 nM ^3 H-RO5-4864, rat mitochondria; range in parentheses
// class assignment uses IC50 with these ranges: bottom end = under 40 nM, midrange = from 40 nM up to 80 nM, top end = 80 nM and over

// known answers, use as guide
compound: CN(C)C(=O)Cc1c(-c2ccccc2)[nH]c2ccccc12
cat: top end
//
compound: CCCN(CCC)C(=O)Cc1c(-c2cccs2)[nH]c2ccccc12
cat: bottom end
//
compound: CCCN(CCC)C(=O)Cc1c(-c2cccs2)[nH]c2ccc(Cl)cc12
cat: bottom end
//
compound: O=C(Cc1c(-c2ccccc2)[nH]c2ccccc12)N1CCCCC1
cat: midrange

## Task Form: Item = `CCCN(CCC)C(=O)Cc1c(-c2ccc(C)cc2)[nH]c2ccc(C)cc12` ; Class = ?
## Result midrange

## Task Could you place `CCCN(CCC)C(=O)Cc1c(-c2ccccc2)[nH]c2ccccc12` in its proper category? Many thanks.
## Result bottom end

* * *

- System: mitochondrial pregnenolone formation, C6-2B glioma cells
- test_protocol: Pregnenolone formation in glial mitochondria (C6-2B glioma cells)
- Format: biochemical
- measurement_parameters: pregnenolone formation, increase over the control
Binary label based on Stimulation % with cut-off 200%: below gives 1 (yes), not below gives 0 (no).

compound: CCCN(CCC)C(=O)Cc1c(-c2ccc(Cl)cc2)n(C)c2ccccc12
cat: 1 (yes)

compound: CCCN(CCC)C(=O)Cc1c(-c2ccc(C)cc2)[nH]c2ccc(C)cc12
cat: 0 (no)

compound: CCCCCCN(CCCCCC)C(=O)Cc1c(-c2ccc(F)cc2)[nH]c2ccccc12
cat: 0 (no)

compound: CCCN(CCC)C(=O)Cc1c(-c2ccc(F)cc2)[nH]c2ccccc12
cat: 1 (yes)

## Task Quick check: Stimulation % of `CN(C)C(=O)Cc1c(-c2ccccc2)[nH]c2ccccc12` under 200%?
## Result 1 (yes)

* * *

- target: MBR (mitochondrial benzodiazepine recognition site) (Rattus norvegicus, UniProt P16257)
- Construct: Brain and adrenal glands were removed and homogenized with Polytron; from tissue; host or cells: mitochondrial fraction of Sprague Dawley rat brain and adrenal glands
- test_protocol: Displacement of ^3 H-PK11195 from mitochondrial BZD recognition site (MBR)
- Format: binding, Sprague Dawley rat
- measurement_parameters: displacement of 1 nM ^3 H-PK11195, rat mitochondria; range in parentheses
Known IC50 of a selection of compounds

Below, each entry is followed by its recorded IC50 result.
compound: CCCN(CCC)C(=O)Cc1c2n(c3ccccc13)Cc1ccccc1-2 [Compound No. 16]
target: MBR (mitochondrial benzodiazepine recognition site) (Rattus norvegicus, UniProt P16257)
IC50: 30 nM

compound: CCCN(CCC)C(=O)Cc1c(-c2ccc(Cl)cc2)[nH]c2ccc(Cl)cc12 [Compound No. 6]
target: MBR (mitochondrial benzodiazepine recognition site) (Rattus norvegicus, UniProt P16257)
IC50: 45 nM

compound: CCCN(CCC)C(=O)Cc1c(-c2ccc(Cl)cc2)[nH]c2ccccc12 [compound 5]
target: MBR (mitochondrial benzodiazepine recognition site) (Rattus norvegicus, UniProt P16257)
IC50: 28.5 nM

compound: O=C(Cc1c(-c2ccccc2)[nH]c2ccccc12)N1CCCCC1 [Compound No. 3]
target: MBR (mitochondrial benzodiazepine recognition site) (Rattus norvegicus, UniProt P16257)
IC50: 84 nM

## Task Fill in the blank: the reported IC50 of Cc1ccc(-c2[nH]c3ccc(C)cc3c2CC(=O)N(C)C)cc1 [Compound No. 9] is ____.
## Result > 1000 nM

## Task Can you share its IC50? I mean this compound: CCCN(CCC)C(=O)Cc1c(-c2ccccc2)[nH]c2ccccc12 [Compound No. 2]
## Result 32.5 nM

## Task IC50 for CCCN(CCC)C(=O)Cc1c(-c2ccc(Cl)cc2)n(C)c2ccccc12 [compound 22] ?
## Result 200 nM

## Task Consider the compound shown here: CCCCCCN(CCCCCC)C(=O)Cc1c(-c2ccc(F)cc2)[nH]c2ccccc12 [compound 27] What is its recorded IC50?
## Result 18 nM

## Task Request the reported IC50 associated with CCCCCCNC(=O)Cc1c(-c2ccccc2)[nH]c2ccccc12 [Compound No. 13]
## Result 57.5 nM

## Task Requested field: IC50. Item: CCCN(CCC)C(=O)Cc1c(-c2ccc(Br)cc2)[nH]c2ccccc12 [compound 18]
## Result 75 nM

## Task What value of IC50 has been reported for the following compound? CCCN(CCC)C(=O)Cc1c(-c2ccc(C)cc2)[nH]c2ccc(C)cc12 [Compound No. 8]
## Result 68.5 nM

## Task Sample CCCN(CCC)C(=O)Cc1c(-c2ccc(F)cc2)[nH]c2ccccc12 [compound 20] — what was its IC50?
## Result 100 nM

* * *

- target: MBR (mitochondrial benzodiazepine recognition site) (Rattus norvegicus, UniProt P16257)
- Construct: Brain and adrenal glands were removed and homogenized with Polytron; from tissue; host or cells: mitochondrial fraction of Sprague Dawley rat brain and adrenal glands
- test_protocol: Displacement of ^3 H-PK11195 from mitochondrial BZD recognition site (MBR)
- Type: binding, Sprague Dawley rat
- measurement_parameters: ratio of the two IC50 values
Item-by-item account of ^3 H-PK11195 / ^3 H-RO5-4864

Before answering, review these 5 worked examples.
compound: CCCN(CCC)C(=O)Cc1c(-c2ccc(C)cc2)[nH]c2ccc(C)cc12
^3 H-PK11195 / ^3 H-RO5-4864: 1.6
--
compound: CCCN(CCC)C(=O)Cc1c(-c2cccs2)[nH]c2ccc(Cl)cc12
^3 H-PK11195 / ^3 H-RO5-4864: 1.3
--
compound: CCCN(CCC)C(=O)C=Cc1c(-c2ccc(Cl)cc2)[nH]c2ccccc12
^3 H-PK11195 / ^3 H-RO5-4864: 1.1
--
compound: CCCCCCNC(=O)Cc1c(-c2ccccc2)[nH]c2ccccc12
^3 H-PK11195 / ^3 H-RO5-4864: 1.8
--
compound: CCCN(CCC)C(=O)Cc1c(-c2cccc(Cl)c2)[nH]c2ccccc12
^3 H-PK11195 / ^3 H-RO5-4864: 1.2

## Task Fill in the blank: the reported ^3 H-PK11195 / ^3 H-RO5-4864 of `O=C(Cc1c(-c2ccccc2)[nH]c2ccccc12)N1CCCCC1` is ____.
## Result 1.4

## Task For the compound shown here, `Cc1ccc(-c2[nH]c3ccc(C)cc3c2CC(=O)N(C)C)cc1` , give the reported ^3 H-PK11195 / ^3 H-RO5-4864.
## Result > 3

## Task I have this compound here, `CCCN(CCC)C(=O)Cc1c(-c2ccccc2)[nH]c2ccccc12` , and I need its recorded ^3 H-PK11195 / ^3 H-RO5-4864.
## Result 1.4

## Task Fill in the blank: the reported ^3 H-PK11195 / ^3 H-RO5-4864 of `CCCN(CCC)C(=O)Cc1c(-c2ccc(Cl)cc2)[nH]c2ccccc12` is ____.
## Result 1.1

## Task Given the compound `CCCN(CCC)C(=O)Cc1c(-c2ccc(Br)cc2)[nH]c2ccccc12` , what is its reported ^3 H-PK11195 / ^3 H-RO5-4864?
## Result 2

## Task Would you kindly share the measured ^3 H-PK11195 / ^3 H-RO5-4864 for `CCCN(CCC)C(=O)Cc1c(-c2ccc(Cl)cc2)[nH]c2ccc(Cl)cc12` ?
## Result 1.1

## Task Need ^3 H-PK11195 / ^3 H-RO5-4864 of `CCCN(CCC)C(=O)CCc1c(-c2ccc(Cl)cc2)[nH]c2ccc(Cl)cc12` , thanks.
## Result 1.5

## Task Sample `CCCCCCN(CCCCCC)C(=O)Cc1c(-c2ccc(F)cc2)[nH]c2ccccc12` — what was its ^3 H-PK11195 / ^3 H-RO5-4864?
## Result 0.9

## Task Need ^3 H-PK11195 / ^3 H-RO5-4864, item `CCCN(CCC)C(=O)Cc1c2n(c3ccccc13)Cc1ccccc1-2`
## Result 0.75

## Task Could you share which ^3 H-PK11195 / ^3 H-RO5-4864 value was measured for `CCCN(CCC)C(=O)Cc1c(-c2ccc(F)cc2)[nH]c2ccccc12` ?
## Result 2

## Task # lookup: ^3 H-PK11195 / ^3 H-RO5-4864 of `CCCN(CCC)C(=O)Cc1c(-c2cccs2)[nH]c2ccccc12`
## Result 1.6

## Task For the compound shown here, `CCCN(CCC)C(=O)Cc1c(-c2ccc(Cl)cc2)n(C)c2ccccc12` , give the reported ^3 H-PK11195 / ^3 H-RO5-4864.
## Result 1

## Task Recorded ^3 H-PK11195 / ^3 H-RO5-4864 for `CN(C)C(=O)Cc1c(-c2ccccc2)[nH]c2ccccc12` , please?
## Result 1
